Assign growth inhibition to each entry below.
# test: NCI Yeast Anticancer Drug Screen. Data for the bub3 strain (AID 167)
# study_conditions: S. cerevisiae bub3 mutant strain, at 50.0 µM, stronger effect = higher value
This is part of a sample that, as a whole, favours compounds with a hit. Of some 79,000 tested, about 15% had one in any assay.
Answer format: numeric, % implied, no suffix.

Quote growth inhibition reported for N#CC(C(=N/NC(N)=S)/C(=N\NC(N)=S)C(C#N)c1ccccc1)c1ccccc1 (configuration not stated) please.
-14.2

Quote growth inhibition reported for "CCc1cc(O)c([N+](=O)[O-])cc1[N+](=O)[O-]" please.
-17.2

Quote growth inhibition reported for "O=C(O)CSc1nc2cc(Cl)c(Cl)cc2[nH]1" please.
13.1

Quote growth inhibition reported for c1ccc(N2N=NC3C4CC(C5COCC54)C32)cc1 (configuration not stated) please.
0.65

Quote growth inhibition reported for "c1ccc2c(c1)oc1ccc3nsnc3c12" please.
20.1

Quote growth inhibition reported for "Nc1nc(N)c(NC(=O)CCCO)c(=O)[nH]1" please.
-23.8

Quote growth inhibition reported for "O=[N+]([O-])c1ccc(CS(=O)(=O)O)cc1" please.
8.8

Quote growth inhibition reported for Nc1nc2c(ncn2C2OC(CO)C3OP(=O)(O)OC32)c(=O)[nH]1 (configuration not stated) please.
0.2

Quote growth inhibition reported for "Cc1ccc(CNc2ccccc2)cc1" please.
14.7

Quote growth inhibition reported for O=C1c2cc(Cl)ccc2-n2c(noc2=O)C2CSCN12 (configuration not stated) please.
-18.3

Quote growth inhibition reported for "CC1(C)COC(c2ccc3ccccc3c2)OC1" please.
35.4

Quote growth inhibition reported for "N#Cc1ccc(CCc2ccccc2)cc1" please.
2.95

====

# test: NCI Yeast Anticancer Drug Screen. Data for the sgs1 mgt1 strain (AID 161);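 also: 0% = growth of cultures given vehicle only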
# study_conditions: S. cerevisiae sgs1 mgt1 strain, at 50.0 µM, stronger effect = higher value
Compounds without any hit were thinned out: in the full panel of roughly 79,000, 15% have a hit.
readout_type: growth inhibition (%)
Answer format: numeric, % implied, no suffix.

Quote growth inhibition reported for O=C1CCCC1CN1CCCCC1 (stereo not drawn) please.
-13.7

Quote growth inhibition reported for "CCOC(=O)NN(C(=O)OCC)C(C)(C)C(C)=O" please.
5.15

Quote growth inhibition reported for "O=S1c2ccccc2Sc2ccccc21" please.
-5.05

Quote growth inhibition reported for O=C(SCCN1CCCC1)C(O)(c1ccccc1)C1CCCC1 (stereo not drawn) please.
-5.3

Quote growth inhibition reported for "Cc1cc(O)c(C=NC(=S)c2ccccc2)c(=O)o1" please.
10.2

Quote growth inhibition reported for "Cc1ccc(C)c(NC(=O)CCC(=O)CC(=O)C(C)(C)C)c1" please.
5.3

Quote growth inhibition reported for CN1C(=O)CC(NC(=O)CNC(=O)c2ccccc2)C1=O (stereo not drawn) please.
23.1

Quote growth inhibition reported for COc1cc(OC)cc(C2OC3=C(Nc4ccccc4N3)C2=O)c1 (stereo not drawn) please.
23.2

Quote growth inhibition reported for "CC1(C)CC(O)=CC(=O)N1" please.
-3.85

Quote growth inhibition reported for "CC(=O)c1ccc(N=NN2CCCC2)cc1" please.
17.1

Quote growth inhibition reported for Cc1cn(C2CC(O)C(CO)O2)c(=O)nc1NCC12CC3CC(CC(C3)C1)C2 (stereo not drawn) please.
-1.1

Quote growth inhibition reported for CCC(COC(=O)CC[C@@H](NC(=O)C(C)NC(=O)C(C)OC1C(O)C(CO)OC(OCc2ccccc2)C1NC(C)=O)C(N)=O)NC1c2ccccc2Nc2cccc([N+](=O)[O-])c21 (stereo partly drawn) please.
-13.8

Quote growth inhibition reported for COc1ccc(C2Cc3cc(OC)c(OC)cc3C(c3ccccc3)N2)cc1OC (stereo not drawn) please.
16.7

Quote growth inhibition reported for COc1ccc(C2C3=C(CC(C)(C)CC3=O)Oc3cc4c(cc32)OCO4)cc1 (stereo not drawn) please.
-25

Quote growth inhibition reported for O=C1C2=C(c3ccccc31)C(c1ccccc1Cl)N1C(=O)CSC1=N2 (stereo not drawn) please.
53.5

Quote growth inhibition reported for "O=C(O)COc1ccccc1P(=O)(c1ccccc1)c1ccccc1" please.
9.7

Quote growth inhibition reported for "CC(C)=CCN(N=O)c1ncnc2nc[nH]c12" please.
-24.8

Quote growth inhibition reported for CSc1nc(Br)nc2c1ncn2C1CC(Oc2ccc(C)cc2)C(COc2ccc(C)cc2)O1 (stereo not drawn) please.
22.1

Quote growth inhibition reported for "Cc1[nH]c2c(C)ccc(C)c2c1CC(=O)O" please.
-40.8

Quote growth inhibition reported for COc1cc(C2c3cc4c(cc3OC(NNC(N)=O)C2C)OCO4)cc(OC)c1OC (stereo not drawn) please.
6.7

Quote growth inhibition reported for C/C=C(\C)C(=O)OC1C2C(C)=CC(=O)C(O)C2(C)C2C3(O)OCC24C1OC(=O)C(OC(C)=O)C4C(C)C3O (stereo not drawn) please.
92.8

Quote growth inhibition reported for "CC1=C[C@H](C[C@]2(C)c3c(c4c(C)cccc4oc3=O)O[C@@H]2C)OC1=O" please.
11.3

Quote growth inhibition reported for "c1ccc(CNc2ncncc2-c2ccccc2)cc1" please.
17.4
